- Experiment summary: Intramuscular pharmacokinetic study of bulk compound 1 and chiral isomers
- Format: in vivo, male Sprague Dawley (SD) rats
- Condition notes: male, Sprague-Dawley, rat, plasma, intramuscular; IM 20 mg/kg, 72 h
Readout type: concentration at 72 h (ng/mL)

| Compound | Readout type | Readout value |
| --- | --- | --- |
| CCOC(=O)C1N=C1CCc1ccc(OC)cc1 (racemic) [Compound 1] | concentration at 72 h | 107 |
| CCOC(=O)[C@H]1N=C1CCc1ccc(OC)cc1 (single isomer, unassigned) [Chiral isomer (1-1)] | concentration at 72 h | 109 |

###

- Experiment summary: Intramuscular pharmacokinetic study of bulk compound 1 and chiral isomers
- Type: in vivo, male Sprague Dawley (SD) rats
- Condition notes: male, Sprague-Dawley, rat, plasma, intramuscular; IM 20 mg/kg, 1 h
Readout type: concentration at 1 h (µg/mL)

1. CCOC(=O)C1N=C1CCc1ccc(OC)cc1 (racemic)
2. CCOC(=O)[C@H]1N=C1CCc1ccc(OC)cc1 (single isomer, unassigned) [Chiral isomer (1-1)]
*Q* Could you check which of 1 and 2 has a smaller value for concentration at 1 h? Reply briefly: the label of your chosen item.
*A* 2
(2: 2.58 µg/mL, 1: 3.93 µg/mL)

###

- Experiment summary: Intramuscular pharmacokinetic study of chiral isomers 1 and 2
- Assay type: in vivo, male Sprague Dawley (SD) rats
- Condition notes: male, Sprague-Dawley, rat, plasma; IM 20 mg/kg, mean ± S.D., n = 4; read-out: AUC0-72
Readout type: AUC(0-t) (µg·h/mL)
Please give a number only; it is taken to be in µg·h/mL.

*Q* # AUC(0-t) lookup, item CCOC(=O)[C@H]1N=C1CCc1ccc(OC)cc1 (single isomer, unassigned) [Chiral isomer (1-1)]
*A* 118

###

- Experiment summary: Intramuscular pharmacokinetic study of bulk compound 1 and chiral isomers
- Assay type: in vivo, male Sprague Dawley (SD) rats
- Condition notes: male, Sprague-Dawley, rat, plasma; IM 20 mg/kg, mean ± S.D., n = 4
Readout type: half-life (h)

| Molecule | Readout type | Readout value |
| --- | --- | --- |
| CCOC(=O)C1N=C1CCc1ccc(OC)cc1 (racemic) [Compound 1] | half-life | 13.5 |
| CCOC(=O)[C@H]1N=C1CCc1ccc(OC)cc1 (single isomer, unassigned) [Chiral isomer (1-1)] | half-life | 16 |

###

- Experiment summary: Intramuscular pharmacokinetic study of chiral isomers 1 and 2
- Assay type: in vivo, male Sprague Dawley (SD) rats
- Condition notes: male, Sprague-Dawley, rat, plasma, intramuscular; IM 20 mg/kg, 9 h
Readout type: concentration at 9 h (ng/mL)
Please give a number only; it is taken to be in ng/mL.

*Q* # concentration at 9 h lookup, item CCOC(=O)[C@H]1N=C1CCc1ccc(OC)cc1 [Chiral isomer (1-1)]
*A* 4810

###

- Experiment summary: Intramuscular pharmacokinetic study of bulk compound 1 and chiral isomers
- Format: in vivo, male Sprague Dawley (SD) rats
- Condition notes: male, Sprague-Dawley, rat, plasma; IM 20 mg/kg, mean ± S.D., n = 4; read-out: MRT
Readout type: MRT (h)

| Molecule | MRT / h |
| --- | --- |
| CCOC(=O)[C@H]1N=C1CCc1ccc(OC)cc1 (single isomer, unassigned) [Chiral isomer (1-1)] | 21 |
| CCOC(=O)C1N=C1CCc1ccc(OC)cc1 (racemic) [Compound 1] | 18 |

###

- Experiment summary: Intramuscular pharmacokinetic study of bulk compound 1 and chiral isomers
- Type: in vivo, male Sprague Dawley (SD) rats
- Condition notes: male, Sprague-Dawley, rat, plasma, intramuscular; IM 20 mg/kg, 5 h
Readout type: concentration at 5 h (ng/mL)

| Molecule | Readout unit | Readout value |
| --- | --- | --- |
| CCOC(=O)[C@H]1N=C1CCc1ccc(OC)cc1 (single isomer, unassigned) [Chiral isomer (1-1)] | ng/mL | 2460 |
| CCOC(=O)C1N=C1CCc1ccc(OC)cc1 (racemic) [Compound 1] | ng/mL | 2830 |

###

- Experiment summary: Intramuscular pharmacokinetic study of bulk compound 1 and chiral isomers
- Format: in vivo, male Sprague Dawley (SD) rats
- Condition notes: male, Sprague-Dawley, rat, plasma; IM 20 mg/kg, mean ± S.D., n = 4; read-out: AUC0-72
Readout type: AUC(0-t) (µg·h/mL)

| Compound | AUC(0-t) [µg·h/mL] |
| --- | --- |
| CCOC(=O)[C@H]1N=C1CCc1ccc(OC)cc1 (single isomer, unassigned) [Chiral isomer (1-1)] | 108 |
| CCOC(=O)C1N=C1CCc1ccc(OC)cc1 (racemic) | 96.5 |

###

- Experiment summary: Intramuscular pharmacokinetic study of chiral isomers 1 and 2
- Format: in vivo, male Sprague Dawley (SD) rats
- Condition notes: male, Sprague-Dawley, rat, plasma, intramuscular; IM 20 mg/kg, 1 h
- Protocol: In vivo pharmacokinetic study was performed in male Sprague Dawley (SD) rats (n=4). Intramuscular (IM) formulation of compound 1 Chiral 1 and 2 were prepared by individually dissolving accurately weighed quantity of compound 1, chiral isomers 1 and 2 (20 mg) in 1 mL of olive oil followed by vortexing for 2 min and sterilize through syringe filter. […]
Readout type: concentration at 1 h (ng/mL)
Please give a number only; it is taken to be in ng/mL.

*Q* # concentration at 1 h lookup, item CCOC(=O)[C@H]1N=C1CCc1ccc(OC)cc1 [Chiral isomer (1-1)]
*A* 3020

###

- Experiment summary: Intramuscular pharmacokinetic study of chiral isomers 1 and 2
- Format: in vivo, male Sprague Dawley (SD) rats
- Condition notes: male, Sprague-Dawley, rat, plasma, intramuscular; IM 20 mg/kg, 0.25 h
Readout type: concentration at 0.25 h (ng/mL)
Please give a number only; it is taken to be in ng/mL.

*Q* # concentration at 0.25 h lookup, item CCOC(=O)[C@H]1N=C1CCc1ccc(OC)cc1 [Chiral isomer (1-1)]
*A* 1520

###

- Experiment summary: Intramuscular pharmacokinetic study of chiral isomers 1 and 2
- Type: in vivo, male Sprague Dawley (SD) rats
- Condition notes: male, Sprague-Dawley, rat, plasma; IM 20 mg/kg; read-out: Tmax
Readout type: Tmax (h)
Please give a number only; it is taken to be in h.

*Q* # Tmax lookup, item CCOC(=O)[C@H]1N=C1CCc1ccc(OC)cc1 (single isomer, unassigned) [Chiral isomer (1-1)]
*A* 9

###

- Experiment summary: Intramuscular pharmacokinetic study of bulk compound 1 and chiral isomers
- Format: in vivo, male Sprague Dawley (SD) rats
- Condition notes: male, Sprague-Dawley, rat, plasma, intramuscular; IM 20 mg/kg, 48 h
- Procedure: In vivo pharmacokinetic study was performed in male Sprague Dawley (SD) rats (n=4). Intramuscular (IM) formulation of bulk of compound 1 as well as chiral isomer-1 and chiral isomer-2 was prepared by dissolving accurately weighed quantity of compound 1 (20 mg) in 1 mL of olive oil followed by vortexing for 2 min and sterilize through syringe filter. […]
Readout type: concentration at 48 h (ng/mL)

1. CCOC(=O)C1N=C1CCc1ccc(OC)cc1 (racemic)
2. CCOC(=O)[C@H]1N=C1CCc1ccc(OC)cc1 (single isomer, unassigned) [Chiral isomer (1-1)]
*Q* Could you check which of 1 and 2 has a smaller value for concentration at 48 h? Reply briefly: the label of your chosen item.
*A* 1
(1: 262 ng/mL, 2: 593 ng/mL)

###

- Experiment summary: Intramuscular pharmacokinetic study of chiral isomers 1 and 2
- Format: in vivo, male Sprague Dawley (SD) rats
- Condition notes: male, Sprague-Dawley, rat, plasma; IM 20 mg/kg, mean ± S.D., n = 4; read-out: Cmax
Readout type: Cmax (ng/mL)
Please give a number only; it is taken to be in ng/mL.

*Q* # Cmax lookup, item CCOC(=O)[C@H]1N=C1CCc1ccc(OC)cc1 (single isomer, unassigned) [Chiral isomer (1-1)]
*A* 4810

###

- Experiment summary: Intramuscular pharmacokinetic study of chiral isomers 1 and 2
- Format: in vivo, male Sprague Dawley (SD) rats
- Condition notes: male, Sprague-Dawley, rat, plasma; IM 20 mg/kg, mean ± S.D., n = 4
Readout type: AUC(0-inf) (µg·h/mL)
Please give a number only; it is taken to be in µg·h/mL.

*Q* # AUC(0-inf) lookup, item CCOC(=O)[C@H]1N=C1CCc1ccc(OC)cc1 (single isomer, unassigned) [Chiral isomer (1-1)]
*A* 121
